Each entry below carries its reported cAMP antagonism % inhib.
# experimental target: T1, human GIP receptor (human, UniProt P48546 22-466)
# T1 sequence (looked up): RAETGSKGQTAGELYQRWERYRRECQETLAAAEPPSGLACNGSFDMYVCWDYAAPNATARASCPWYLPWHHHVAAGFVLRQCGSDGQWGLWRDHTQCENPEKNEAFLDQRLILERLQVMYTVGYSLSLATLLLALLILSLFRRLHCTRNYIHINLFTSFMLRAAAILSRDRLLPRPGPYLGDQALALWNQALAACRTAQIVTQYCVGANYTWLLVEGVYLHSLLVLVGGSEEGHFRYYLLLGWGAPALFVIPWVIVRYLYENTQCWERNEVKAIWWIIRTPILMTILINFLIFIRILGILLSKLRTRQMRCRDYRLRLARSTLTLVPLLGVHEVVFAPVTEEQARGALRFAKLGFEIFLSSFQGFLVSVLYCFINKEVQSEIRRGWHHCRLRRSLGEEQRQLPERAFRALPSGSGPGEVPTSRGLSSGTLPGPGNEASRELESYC
# run description: cell-based or functional assay
*1 amine or outer side, *2 acyl side, *3 side chain or, on linkers, in order; H or OH if unused. Where no end group is shown, it is not given here. Side-chain parts run from the residue outwards. [ ]: non-standard residue; d: D form. The star is where a group is joined. C18 diacid = O=C(O)CCCCCCCCCCCCCCCCC(=O)*; C16 diacid = O=C(O)CCCCCCCCCCCCCCC(=O)*; γGlu = O=C(O)[C@H](CCC(=O)[*:2])N[*:1]; Nle = CCCC[C@H](N)C(=O)O; PEG = not defined here
property name: cAMP antagonism % inhib

{"binder": "EGTFISDYSIALDKIKQQDFVNWLLAQKPSSGAPPPS (βGlu at 3; Aib at 13; Nle at 14; K18: C16-diacid; C-term COOH) [AT703]", "experimental value": "93%"}
{"binder": "[βGlu]GTFISDYSIA[Nle]DKIK(C16 diacid)QQDFVEWLLAQKPSSGAPPPS-OH [AT699]", "experimental value": "88%"}
{"binder": "TFISDYK([PEG-PEG-γGlu-C18 diacid])IAMDKIHQQDFVNWLLAGGPSSGAPPPS (not fully specified (C-terminus); reading uncertain) [AT602]", "experimental value": "100%"}
